experiment: Cytotoxicity against human MCF-10A cells assessed as inhibition of cell proliferation by CCK-8 assay; type: toxicity, cell-based
Measured Property: IC50 (µM)

smiles_string=CN1CCN(c2ccc(-c3nc(-c4ccc(-c5ccc(C(F)(F)F)cc5)cc4)[nH]c3-c3ccc(N4CCN(C)CC4)cc3)cc2)CC1 unit=µM experimental_result=8.7

----------
system: MDA-MB-231; test: Cytotoxicity against human MDA-MB-231 cells assessed as inhibition of cell growth at 0 to 20 uM incubated for 24 hrs by CCK-8 assay; assay type: functional, cell-based; details: MDA-MB-231, 24 h
pIC50: −log10 of the molar value.
Measured Property: pIC50

smiles_string=CN1CCN(c2ccc(-c3nc(-c4ccc(-c5ccc(C(F)(F)F)cc5)cc4)[nH]c3-c3ccc(N4CCN(C)CC4)cc3)cc2)CC1 target=MDA-MB-231 experimental_result=5.74
